FYI, the data here is from ChEMBL document CHEMBL1144418.

assayed-system: Lysophosphatidic acid receptor 3 (Homo sapiens)
assay: Agonistic activity as increased intracellular calcium level by human LPA3 receptor expressed in Sf9 cells
I'd appreciate it if you could supply pEC50 values for the items below.
// scale note: pEC50 = -log10(conc_M); give the bare number

Exercise: Give pEC50 for CCCCCCCC/C=C/CCCCCCCC(=O)OC[C@H](CC(F)P(=O)(O)O)OC (stereo not given in full) tested on Lysophosphatidic acid receptor 3 (Homo sapiens).
Key: 7.70

Exercise: Give the observed pEC50 of CCCCCCCC/C=C/CCCCCCCC(=O)OC[C@@H](O)CC(F)P(=O)(O)O (stereo not given in full) for Lysophosphatidic acid receptor 3 (Homo sapiens).
Key: 9.30

###

Record form. Attribute: EC50. Fill in for each entry.
assayed-system: Lysophosphatidic acid receptor 3 (Homo sapiens, UniProt Q9UBY5)
Sequence (Q9UBY5 whole entry): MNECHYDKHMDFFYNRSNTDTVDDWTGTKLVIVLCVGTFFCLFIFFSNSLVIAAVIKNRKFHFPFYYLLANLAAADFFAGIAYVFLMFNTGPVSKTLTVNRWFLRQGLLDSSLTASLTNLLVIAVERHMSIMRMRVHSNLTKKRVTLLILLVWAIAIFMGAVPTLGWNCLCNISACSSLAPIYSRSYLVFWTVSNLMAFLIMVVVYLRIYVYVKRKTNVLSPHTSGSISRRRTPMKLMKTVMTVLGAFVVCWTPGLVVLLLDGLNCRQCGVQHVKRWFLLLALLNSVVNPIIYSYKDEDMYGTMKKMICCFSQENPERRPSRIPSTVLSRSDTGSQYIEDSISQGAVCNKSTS
assay: Agonistic activity as increased intracellular calcium level by human LPA3 receptor expressed in Sf9 cells

Exercise: Dear colleague, please send me the reported EC50 for CCCCCCCCCCCCCCCC(=O)OC[C@@H](F)COP(=O)(O)O when you can.
Key: > 10 µM

Exercise: Return EC50 for the following molecule: CCCCCCCCCCCCCCCC(=O)O[C@H](COP(=O)(O)O)CC(F)F
Key: > 10 µM

Exercise: // Input: CCCCCCCCCCCCCCCC(=O)OCC(O)COP(=O)(O)O (stereo not drawn) [PALMITOYL] . Output its EC50 only.
Key: > 10 µM
